// reported IC50 for each item listed
system: MYB mRNA; test: Splicing RT-qPCR assay, MYB canonical (CJ) and alternative (AJ) junction mRNA; format: cell-based, human; conditions: Homo sapiens, canonical junction mRNA, qPCR panel; read-out: MYB CJ (decrease in CJ mRNA levels, IC50)

compound | IC50
C[C@@H]1CN(c2cnc3nc(-c4cc(F)c5nn(C)cc5c4)cc(Cl)c3c2)C[C@@H](C)N1 [Compound 251] | 100 to 1000 nM
Cc1cn2nc(-c3ccc4cc(N(C)C5CCNCC5)cnc4n3)cc(C)c2n1 [Compound 205] | 1000 to 10000 nM
CN[C@H]1CCN(c2cnc3nc(-c4cc5cn(C)nc5c(F)c4O)cc(Cl)c3c2)C1 [Compound 272] | < 100 nM

----------
test system: MYB mRNA; assay: Splicing RT-qPCR assay, MYB canonical (CJ) and alternative (AJ) junction mRNA; format: cell-based, human; conditions: Homo sapiens, canonical junction mRNA, qPCR panel; read-out: MYB CJ (decrease in CJ mRNA levels, IC50)
pIC50: −log10 of the molar value. Structures can show the parent of a compound that is named as a salt.
Recorded measurements of pIC50, one per entry
readout-type: pIC50

compound | value-reported
CNC1CCN(c2cnc3nc(-c4cc5cn(C)nc5c(C)c4O)ncc3c2)C1 (stereo not drawn) [Compound 104] | > 7.00
Cc1c(O)c(-c2ccc3nc(N4CCC(N(C)C)CC4)cnc3n2)cc2cn(C)nc12 [Compound 198] | > 7.00
C[C@H]1CN(c2cnc3nc(-c4cc5cn(C)nc5cc4O)cc(Cl)c3c2)C[C@H](C)N1 [Compound 242] | > 7.00
Cc1c(O)c(-c2cc(C3CC3)c3cc(N4C[C@H](C)N[C@@H](C)C4)cnc3n2)cc2cn(C)nc12 [Compound 377] | > 7.00
CN[C@@H]1CCN(c2cnc3nc(-c4cc5cn(C)nc5c(C)c4O)ncc3c2)C1 [Compound 107, hydrochloride] | > 7.00
C[C@@H]1CN(c2cnc3nc(-c4cc5cn(C)nc5c(F)c4O)cc(C#N)c3c2)C[C@H](C)N1 [Compound 266, hydrochloride] | > 7.00
CN[C@H]1CN(c2cnc3nc(-c4cc5cn(C)nc5c(C)c4O)ccc3c2)C[C@H]1C [Compound 125] | > 7.00
CN[C@H]1CN(c2cnc3nc(-c4cc5cn(C)nc5c(C)c4O)ccc3c2)C[C@@H]1F (single isomer, unassigned) [Compound 131] | 6.00 to 7.00
Cc1cn2nc(-c3ccc4cc(NC5CCNCC5)cnc4n3)cc(C)c2n1 [Compound 210, trifluoroacetic acid] | 5.00 to 6.00
CN(C)[C@H]1CCN(c2cnc3nc(-c4cc5cn(C)nc5c(F)c4O)cc(Cl)c3c2)C1 [Compound 221] | > 7.00
C[C@@H]1CN(c2cnc3nc(-c4cc5cn(C)nc5cc4O)cc(Cl)c3c2)C[C@H](C)N1 [Compound 208] | > 7.00
C[C@@H]1CN(c2cnc3nc(-c4cc(C#N)c5nn(C)cc5c4)cc(Cl)c3c2)C[C@H](C)N1 [Compound 325, 2,2,2-trifluoroacetate] | 6.00 to 7.00
CN1CCC[C@H]2CN(c3cnc4nc(-c5cc6cn(C)nc6c(F)c5O)cc(Cl)c4c3)C[C@H]21 [Compound 304] | 6.00 to 7.00
CN[C@@H]1CCN(c2cnc3nc(-c4cc5cn(C)nc5c(C)c4O)cc(Cl)c3c2)C1 [Compound 286, hydrochloride] | > 7.00
Cn1cc2cc(-c3cnc4nc(N5CCNCC5)cc(Cl)c4c3)cc(F)c2n1 [Compound 101] | 6.00 to 7.00
Cn1cc2cc(-c3cc(Cl)c4cc(N5CC[C@H](NC(C)(C)C)C5)cnc4n3)c(O)c(F)c2n1 [Compound 497] | > 7.00
Cc1c(O)c(-c2ccc3cc(N4CCC(NCC5CC5)C4)cnc3n2)cc2cn(C)nc12 (stereo in doubt) [Compound 119] | > 7.00
Cc1cn2nc(-c3cc(Cl)c4cc(N5C[C@H](C)N[C@@H](C)C5)cnc4n3)cc(C)c2n1 [Compound 336] | > 7.00

Taken from patent US20250326748A1.
